target: T1, full-length human GPC3 (human, UniProt P51654 25-554); assay: BIACORE; the form of GPC3 used is not given
T1 construct: On CHO (DXB11) or SK-HEP-1 (SK-03) transfectants; also used here for the GPC3 on the hepatoma lines HepG2 and HuH-7; also called human glypican 3
T1 sequence (P51654 25-554 limits assumed): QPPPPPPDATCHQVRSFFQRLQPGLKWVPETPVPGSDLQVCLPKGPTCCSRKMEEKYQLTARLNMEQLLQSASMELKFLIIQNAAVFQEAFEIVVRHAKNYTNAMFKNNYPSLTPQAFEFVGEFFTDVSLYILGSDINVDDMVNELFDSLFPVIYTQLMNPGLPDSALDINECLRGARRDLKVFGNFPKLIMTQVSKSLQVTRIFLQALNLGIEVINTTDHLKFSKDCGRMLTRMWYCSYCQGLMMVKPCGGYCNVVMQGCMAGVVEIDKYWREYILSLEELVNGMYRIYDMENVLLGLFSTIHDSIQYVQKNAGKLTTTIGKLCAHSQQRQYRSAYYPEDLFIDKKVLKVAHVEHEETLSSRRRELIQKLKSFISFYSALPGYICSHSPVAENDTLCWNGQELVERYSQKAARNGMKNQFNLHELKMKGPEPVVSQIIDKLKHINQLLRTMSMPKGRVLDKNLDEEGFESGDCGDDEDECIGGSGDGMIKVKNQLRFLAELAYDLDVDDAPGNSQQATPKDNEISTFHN
Property Label: kon (M⁻¹ s⁻¹)
Expressed in M⁻¹ s⁻¹, but write only the number.

A selection of reference data follows.
• M5B9 (antibody, V domains shown, Mouse monoclonal from hybridoma) VH: EVQLQQSGTVLARPGASVKMSCKASGYTFTGYWMHWVKQRPGQGLEWIGAIYPGNSDTNYNQKFKGKAKLTAVTSASTAYMELSSLTNEDAAVYHCTRSGDLTGGLAYWGQGTLVTVSA VL: DIVMTQAAFSNPVTLGTSASISCRSSKSLLHSNGITYLYWFLQKPGQSPQLLIYQMSNLASGVPDRFSSSGSGTDFTLRISRVEAEDVGVYYCAQNLELPYTFGSGTKLEIK = 60000
• M1E7 (antibody, human IgG1, kappa, V domains shown, Mouse monoclonal from hybridoma; also called M1E07) VH: EVQLQQSGPELVKPGASVKISCKASGYSFTGYYMHWVKQSPEKSLEWIGEINPSTGGTTYNQKFKAKATLTVDKSSSTAYMQLKSLTSEDSAVYYCARRGGLTGTSFFAYWGQGTLVTVSA VL: DVVMTQTPLSLSVTIGQPASISCKSSQSLLYSNGKTYLNWLQQRPGQAPKHLMYQVSKLDPGIPDRFSGSGSETDFTLKISRVEAEDLGVYYCLQSTYYPLTFGAGTKLELKR = 150000

# input for lookup
Lookup: Provide only the value of recorded kon for L9G11 (antibody, V domains shown, Mouse monoclonal from hybridoma) VH: QVQLQQPGAELVKPGASVKLSCKASGYTFTSYWMHWVKQRPGQGLEWIGTIDPSDSETHYNLQFKDTATLTVDKSSSTAYMQLSSLTSEDSAVYYCIRGAFYSSYSYWAWFAYWGQGTLVTVSA VL: DIVLTQSPTSLAVSLGQSVTISCRASESVEYYGTSLMQWYQQKPGQPPKLLIYGASNVESGVPARFSGSGSGTDFSLNIHPVEEDDIAMYFCQQSRKVPYTFGSGTKLEIK
Found: 130000
